biological target: T1, IFN-αC (human, UniProt P01566 24-189); experiment: ProteOn, one antigen concentration
T1 construct: also called IFN-α10; alpha C
Readout Type: pKd
Please express pKd as -log10 of the molar concentration.

Would you please look over these solved cases?
{"Binder": "IFWM3350 (antibody, V domains shown, VH IFWH624, VL IFWL1009; converted mAb; also called IFWB3085) VH: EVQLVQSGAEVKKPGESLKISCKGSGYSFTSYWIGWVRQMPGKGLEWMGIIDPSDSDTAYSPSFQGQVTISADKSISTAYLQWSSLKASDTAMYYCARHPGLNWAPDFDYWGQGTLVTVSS VL: DIQMTQSPSSLSASVGDRVTITCRASQSIDDFLNWYQQKPGKAPKLLIYFASSLQSGVPSRFSGSGSGTDFTLTISSLQPEDFATYYCQQSHTLPLTFGQGTKVEIK", "Result Value": 10.24}
{"Binder": "IFWM3354 (antibody, V domains shown, VH IFWH624, VL IFWL1017; converted mAb; also called IFWB3089) VH: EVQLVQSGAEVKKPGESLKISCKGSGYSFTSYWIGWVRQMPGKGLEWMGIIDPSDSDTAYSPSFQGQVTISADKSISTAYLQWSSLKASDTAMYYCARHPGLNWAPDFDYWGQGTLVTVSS VL: DIQMTQSPSSLSASVGDRVTITCRASQSITSSLNWYQQKPGKAPKLLIYFASSLQSGVPSRFSGSGSGTDFTLTISSLQPEDFATYYCQQSFDLPLTFGQGTKVEIK", "Result Value": 10.37}

With those in mind, consider the next binder.
Please list pKd recorded for the binder IFWM3305 (antibody, V domains shown, VH IFWH591, VL IFWL998; converted mAb; also called IFWB3040) VH: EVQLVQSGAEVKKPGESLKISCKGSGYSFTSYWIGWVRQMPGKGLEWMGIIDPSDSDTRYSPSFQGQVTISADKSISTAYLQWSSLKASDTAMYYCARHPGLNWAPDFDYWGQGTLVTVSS VL: DIQMTQSPSSLSASVGDRVTITCRASQSISKFLNWYQQKPGKAPKLLIYFASSLQSGVPSRFSGSGSGTDFTLTISSLQPEDFATYYCQQSNTLPFTFGQGTKVEIK
9.94
